Provide the reported apparent KD of MS2 coat protein of each item.
- System: MS2 coat protein
- assay_method_text: apparent KD of MS2 coat protein; higher = weaker reporter binding
- measurement_parameters: Eterna round: R107; input ligand: arginine 13.2 mM
Output spec: scalar in nM, unitless text.

What measured apparent KD of MS2 coat protein is associated with UCACAUGAGGAUCACCCAUGUACAGGCGAUACCAGCCGUACAUUGGGCCCUUGGCAGCGCACCGAGGACUUUUUAAGCAUCUCGG [Diatbeen] on MS2 coat protein?
26.2

Another sequence: AGCACGGUGAUGGUAGCCGGACGAUAAGUACGAGGACCGGUACGGCCGCCACUCGAAGUCCUACGACAUGAGGAUCACCCAUGUA [Same State Trp A GF11]
30.4

Another sequence: UGAGAUCCUCAUGAUACCAGUGUACUACAUGAGGAUCACCCAUGUAGCAACAUCUGUAGACACCCUUGGCAGCAUGAGACCACGU [Theo B SS t5]
17.5

====

- Tested on: MS2 coat protein
- assay_method_text: apparent KD of MS2 coat protein; designed switch direction (-1 OFF switch, 1 ON switch): -1; higher = weaker reporter binding
- measurement_parameters: Eterna round: R95; input ligand: microRNA oligo, concentration not stated
result_type: apparent KD of MS2 coat protein

Given UUUUACAUAGGAUAUAGUUUGUUGUACAUGAGGAUCACCCAUGUUGUUGGUUGUGCUGUUCUAGAAGGAUGUUUCU [JR_E5_Sub014] (puzzle: Exclusion 5) , state its recorded apparent KD of MS2 coat protein.
37.3 nM

Another sequence: GGUUGGCGAGGAUAUACAUGAGGAUCACCCAUGUGAGAUAAAAAAGUGAGGAAGAAAAGUAGAAGGCGCUGACG [salish99_ex3_r3_010] (puzzle: Exclusion 3)
71.5 nM

Another sequence: CCUCCACAUGAGGAUCACCCAUGUCAGGAUAUCGUGUGUUUUUUUUCGGUCUUUCGUGCGAGAAGGGACGUCUU (puzzle: Exclusion 1)
30.8 nM

====

- Tested on: MS2 coat protein
- assay_method_text: apparent KD of MS2 coat protein; designed switch direction (-1 OFF switch, 1 ON switch): -1; higher = weaker reporter binding
- measurement_parameters: Eterna round: R95; input ligand: microRNA oligo, concentration not stated
result_type: apparent KD of MS2 coat protein
Just so you know, I need the unit written after the number.

Given GUCCUACAUGAGGAUCACCCAUGUAAGGAUAUGCUAGCGGUCGGAUGACUGACUGCUAGCAGAAGGUACAUGAU [Mat - Mod of JL D78] (puzzle: Exclusion 1) , state its recorded apparent KD of MS2 coat protein.
15.5 nM

Another sequence: CCGGUAAAGGAGGAUAUAGGAGUCGAUAGACACCUAGAAGGCCUGACAUGAGGAUCACCCAUGUGUCCUACCGG [Fiskers Ex 6 - 93] (puzzle: Exclusion 6)
14.1 nM

Another sequence: UUUUUGUGAGGAUAUUAGUAGUAAAAAAAUAAAAUUACUACUGAGAAGGCACAUGAGGAUCACCCAUGUUCCUC [salish99_ex4_r3_040] (puzzle: Exclusion 4)
34.9 nM

Another sequence: GGAUGGCGAGGAUAUACAUGAGGAUCACCCAUGUGAGAGAAAUAAGUGAGGAAGAAAAGUAGAAGGCGCAGACG [Mat - Exclusion 3 - Mod of Salish D45] (puzzle: Exclusion 3)
55.7 nM

Another sequence: GGUUUUCUUUUCCUUUCUUACAUGAGGAUCACCCAUGUUUCUUGUCGUGCUCGCGUUGCUCGUCUGUCUGUCUGUUG [salish99_TOv1_r3_076(!)] (puzzle: Sensor v3, turn-off variant 1)
35.7 nM

Hello, the source for this data is the supplement of paper PMC9170038, in case you need it.
